Taken from patent US20240131162A1.

target: T1, CD16A F158 (human, UniProt P08637 17-208, limits assumed); experiment: method not stated at Table 3
T1 construct: construct not described
T1 sequence (P08637 17-208 limits assumed): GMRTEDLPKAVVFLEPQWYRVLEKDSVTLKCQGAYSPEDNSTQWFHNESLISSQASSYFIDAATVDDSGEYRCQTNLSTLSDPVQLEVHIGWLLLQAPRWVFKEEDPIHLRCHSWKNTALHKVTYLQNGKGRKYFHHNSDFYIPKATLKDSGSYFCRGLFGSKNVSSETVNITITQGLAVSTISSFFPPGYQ
The entries below are paired with their reported binding relative to wild-type Fc.
Give just the number in fold; leave the unit off.

Query string: Reported binding relative to wild-type Fc for Fc variant F243L D270E G316D R416G (other, UniProt P01857-1 104-330, looked up, domain: Fc) DKTHTCPPCPAPELLGGPSVFLLPPKPKDTLMISRTPEVTCVVVDVSHEEPEVKFNWYVDGVEVHNAKTKPREEQYNSTYRVVSVLTVLHQDWLNDKEYKCKVSNKALPAPIEKTISKAKGQPREPQVYTLPPSRDELTKNQVSLTCLVKGFYPSDIAVEWESNGQPENNYKTTPPVLDSDGSFFLYSKLTVDKSGWQQGNVFSCSVMHEALHNHYTQKSLSLSPGK : what is it?
Result string: 1.34

Query string: Reported binding relative to wild-type Fc for Fc mutant 17: F243L R292P V305I P396L (other, UniProt P01857-1 104-330, looked up, domain: Fc) DKTHTCPPCPAPELLGGPSVFLLPPKPKDTLMISRTPEVTCVVVDVSHEDPEVKFNWYVDGVEVHNAKTKPPEEQYNSTYRVVSILTVLHQDWLNGKEYKCKVSNKALPAPIEKTISKAKGQPREPQVYTLPPSRDELTKNQVSLTCLVKGFYPSDIAVEWESNGQPENNYKTTPLVLDSDGSFFLYSKLTVDKSRWQQGNVFSCSVMHEALHNHYTQKSLSLSPGK : what is it?
Result string: 2.53
